- procedure_summary: G protein-coupled receptor (GPCR) small molecule agonists, calcium flux assay: HEK293 wild type cell line counter screen (AID 1920065)
- run_conditions: HEK293 WT calcium flux, fluorescence, agonist mode; series mostly up to 57.6 µM
The source made the active and inactive calls. Calls come from the whole dose curve.
measurement_kind: outcome

compound: C/C=C/C(=O)N(CC)c1ccccc1C
outcome: inactive
//
compound: NNc1ccc(C(=O)O)cc1
outcome: inactive
//
compound: C=C[C@@]1(C)CC(=O)[C@]2(O)[C@@]3(C)[C@@H](O)CCC(C)(C)[C@@H]3[C@H](O)[C@H](OC(C)=O)[C@@]2(C)O1
outcome: inactive
//
compound: CCOC(=O)C(C#N)=C(c1ccccc1)c1ccccc1
outcome: inactive
//
compound: CC(=O)NS(=O)(=O)c1ccc(N)cc1
outcome: inactive

Now for another entry.
Looking up "O=C(O)c1ccc(S(=O)(=O)N(Cl)Cl)cc1" , I see its outcome listed as inactive
